Hey, just so you know, these numbers are from the RNAGym collection of RNA variant scans (doi:10.1126/science.aae0568).

B1: tRNA (parent)
chain: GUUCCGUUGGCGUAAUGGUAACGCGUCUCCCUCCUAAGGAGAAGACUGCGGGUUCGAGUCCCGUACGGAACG

Variants of: B1
Assay: yeast fitness relative to wild type (ratio to wild type); higher = fitter; tRNA-Arg(CCU), competitive growth, 37 C, YPD
This sample holds only a part of the variants without activity.
Provide the reported yeast fitness of each item.
# print the numeric value only

Lab note: A14G G48C gave yeast fitness of 0.701

Lab note: U7A G10A G41U C49U gave yeast fitness of 0.615

Lab note: U13C C27U gave yeast fitness of 0.878

Lab note: U64G gave yeast fitness of 0.993

Lab note: G6A A45C gave yeast fitness of 0.738

Lab note: G23C G41A A45C A65C gave yeast fitness of 0.583

Lab note: C4A U26A A36C C49G gave yeast fitness of 0.583

Lab note: G39C C62U gave yeast fitness of 0.776

Lab note: U19A G48A A65U gave yeast fitness of 0.71

Lab note: G48A C49A G67U gave yeast fitness of 0.572

Lab note: G25A A43C U59C gave yeast fitness of 0.71

Lab note: U2G C24G C30G C31U U35A A36U G44A G63C gave yeast fitness of 0.552

Lab note: U35A C62U gave yeast fitness of 0.732

Lab note: C5U G38C gave yeast fitness of 0.719

Lab note: C34A U47C gave yeast fitness of 0.646

Lab note: A37U G63A gave yeast fitness of 0.642

Lab note: C22G C60A gave yeast fitness of 0.679

Lab note: U7C A42U A70U gave yeast fitness of 0.584

Lab note: C5U C31G C33U gave yeast fitness of 0.522

Lab note: A21U A65U gave yeast fitness of 0.793

Lab note: U8C C30G C31G gave yeast fitness of 0.58
